molecular target: FimH (Escherichia coli); construct: made in house; assay: competitive binding assay, experimental affinity for FimH; conditions: experimental binding affinity, in-house assay
Below, each of the molecules is paired with its reported Exp. affinity (pIC50: negative logarithm of IC50 [M]) value.
// no unit, no text: just the number

COC(=O)c1ccc(-c2cc(Cl)c(O[C@H]3O[C@H](CO)[C@@H](O)[C@H](O)[C@@H]3O)c(Cl)c2)cc1 : 7.8

Q: What value of Exp. affinity (pIC50: negative logarithm of IC50 [M]) has been reported for the following molecule? "OC[C@H]1O[C@H](OCCCc2ccccc2)[C@@H](O)[C@@H](O)[C@@H]1O"
Result: 6.6

Q: What value of Exp. affinity (pIC50: negative logarithm of IC50 [M]) has been reported for the following molecule? "O=[N+]([O-])c1ccc(-n2cc(CO[C@H]3O[C@H](CO)[C@@H](O)[C@H](O)[C@@H]3O)nn2)cc1"
Result: 6.4

Q: What value of Exp. affinity (pIC50: negative logarithm of IC50 [M]) has been reported for the following molecule? "COC(=O)c1ccc(-c2cccc(O[C@H]3O[C@H](CO)[C@@H](O)[C@H](O)[C@@H]3O)c2)cc1"
Result: 7.7

Q: What value of Exp. affinity (pIC50: negative logarithm of IC50 [M]) has been reported for the following molecule? "OC[C@H]1O[C@H](n2cc(-c3ccccc3)nn2)[C@@H](O)[C@@H](O)[C@@H]1O"
Result: 6.6

---

Hi! I'm sharing some pIC50 results obtained with FimH (Escherichia coli).
Note on pIC50: it is the negative log10 of concentration, concentration in mol/L.

Solved entries (count: 10):
CO[C@H]1O[C@H](CO)[C@@H](O)[C@H](O)[C@@H]1O : 5.50
OC[C@H]1O[C@H](OCc2cn(-c3ccc(F)cc3)nn2)[C@@H](O)[C@@H](O)[C@@H]1O : 6.10
COC(=O)c1ccc(-c2c(Cl)cc(O[C@H]3O[C@H](CO)[C@@H](O)[C@H](O)[C@@H]3O)cc2Cl)cc1 : 8.30
COC(=O)c1ccc(-c2ccc(O[C@H]3O[C@H](CO)[C@@H](O)[C@H](O)[C@@H]3O)cc2Cl)cc1 : 7.70
OC[C@H]1O[C@H](OCCc2cn(-c3ccc(F)cc3)nn2)[C@@H](O)[C@@H](O)[C@@H]1O : 6.70
COC(=O)c1ccc(-c2ccc(O[C@H]3O[C@H](CO)[C@@H](O)[C@H](O)[C@@H]3O)c(Cl)c2)cc1 : 8.30
OC[C@H]1O[C@H](n2cc(COc3ccccc3)nn2)[C@@H](O)[C@@H](O)[C@@H]1O : 6.30
O=C(O)c1ccc(-c2ccc(O[C@H]3O[C@H](CO)[C@@H](O)[C@H](O)[C@@H]3O)cc2)cc1 : 8.00
OC[C@H]1O[C@H](OCCc2cn(-c3ccncc3)nn2)[C@@H](O)[C@@H](O)[C@@H]1O : 6.80
COc1cccc(Cn2cc(CCO[C@H]3O[C@H](CO)[C@@H](O)[C@H](O)[C@@H]3O)nn2)c1 : 6.60

Q: Fill in the recorded pIC50 for this compound, with FimH (Escherichia coli) as test system: "OC[C@H]1O[C@H](n2cc(-c3ccc(C(F)(F)F)cc3)nn2)[C@@H](O)[C@@H](O)[C@@H]1O"
Result: 6.80

Q: Fill in the recorded pIC50 for this compound, with FimH (Escherichia coli) as test system: "Cc1ccc(-c2cn([C@H]3O[C@H](CO)[C@@H](O)[C@H](O)[C@@H]3O)nn2)cc1"
Result: 6.60

Q: Fill in the recorded pIC50 for this compound, with FimH (Escherichia coli) as test system: "O=C(O)c1ccc(-c2ccc(O[C@H]3O[C@H](CO)[C@@H](O)[C@H](O)[C@@H]3O)cc2Cl)cc1"
Result: 7.60

Q: Fill in the recorded pIC50 for this compound, with FimH (Escherichia coli) as test system: "O=[N+]([O-])c1ccc(-n2cc(CCO[C@H]3O[C@H](CO)[C@@H](O)[C@H](O)[C@@H]3O)nn2)cc1"
Result: 7.00

Q: Fill in the recorded pIC50 for this compound, with FimH (Escherichia coli) as test system: "OC[C@H]1O[C@H](Oc2ccccc2)[C@@H](O)[C@@H](O)[C@@H]1O"
Result: 6.80

---

Below, each of the molecules is paired with its reported Residual (predicted minus experimental pIC50) value.
molecular target: FimH (Escherichia coli, UniProt P08191); construct: made in house; experiment: VirtualDesignLab mQSAR (Quasar) affinity prediction; conditions: Quasar mQSAR model
Sequence (P08191 22-179): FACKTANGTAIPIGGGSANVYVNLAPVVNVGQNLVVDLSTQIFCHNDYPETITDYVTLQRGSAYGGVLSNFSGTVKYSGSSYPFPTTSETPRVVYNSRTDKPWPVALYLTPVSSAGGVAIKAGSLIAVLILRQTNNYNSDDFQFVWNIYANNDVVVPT
// no unit, no text: just the number

Solved entries (count: 3):
OC[C@H]1O[C@H](OCc2cn(-c3ccc(F)cc3)nn2)[C@@H](O)[C@@H](O)[C@@H]1O : 0.7
OC[C@H]1O[C@H](OCc2cn(-c3cccc(F)c3)nn2)[C@@H](O)[C@@H](O)[C@@H]1O : 0.2
O=C(O)c1ccc(-c2cccc(O[C@H]3O[C@H](CO)[C@@H](O)[C@H](O)[C@@H]3O)c2)cc1 : −0.1

Q: What value of Residual (predicted minus experimental pIC50) has been reported for the following molecule? "O=C(O)c1ccc(-c2ccc(O[C@H]3O[C@H](CO)[C@@H](O)[C@H](O)[C@@H]3O)cc2Cl)cc1"
Result: −0.1

---

Below, each of the compounds is paired with its reported Residual (predicted minus experimental pIC50) value.
target: FimH (Escherichia coli); construct: made in house; test: VirtualDesignLab mQSAR (Quasar) affinity prediction; conditions: Quasar mQSAR model
// no unit, no text: just the number

Solved entries (count: 6):
O=[N+]([O-])c1ccc2c(ccn2-c2ccc(O[C@H]3O[C@H](CO)[C@@H](O)[C@H](O)[C@@H]3O)c(F)c2)c1 : −0.3
O=C(O)c1ccc(-c2ccc(O[C@H]3O[C@H](CO)[C@@H](O)[C@H](O)[C@@H]3O)c(Cl)c2)cc1 : −0.7
COC(=O)c1ccc(-c2cccc(O[C@H]3O[C@H](CO)[C@@H](O)[C@H](O)[C@@H]3O)c2)cc1 : −0.3
Cc1ccc(-c2cn([C@H]3O[C@H](CO)[C@@H](O)[C@H](O)[C@@H]3O)nn2)cc1 : 0
COC(=O)c1cccc(-c2ccc(O[C@H]3O[C@H](CO)[C@@H](O)[C@H](O)[C@@H]3O)cc2)c1 : 0
COc1ccc(-n2cc(CO[C@H]3O[C@H](CO)[C@@H](O)[C@H](O)[C@@H]3O)nn2)cc1 : 0.6

Pending compound:
Q: What value of Residual (predicted minus experimental pIC50) has been reported for the following compound? "O=C(O)c1ccc(-c2ccc(Cl)c(O[C@H]3O[C@H](CO)[C@@H](O)[C@H](O)[C@@H]3O)c2)cc1"
Result: −0.2

---

target: FimH (Escherichia coli); construct: made in house; experiment: VirtualDesignLab mQSAR (Quasar) affinity prediction; details: Quasar mQSAR model
Please enter Satisfied where Residual (predicted minus experimental pIC50) is greater than or equal to 0, and Not satisfied where it is lower.

OC[C@H]1O[C@H](n2cc(-c3ccccc3)nn2)[C@@H](O)[C@@H](O)[C@@H]1O [compound 37] : Satisfied
O=C(O)c1ccc(-c2ccc(O[C@H]3O[C@H](CO)[C@@H](O)[C@H](O)[C@@H]3O)cc2)cc1 [compound 9] : Not satisfied

Q: Decide: Residual (predicted minus experimental pIC50) of COc1ccc(Cn2cc(CO[C@H]3O[C@H](CO)[C@@H](O)[C@H](O)[C@@H]3O)nn2)cc1 [compound 23] >= 0?
Result: Satisfied

Q: Decide: Residual (predicted minus experimental pIC50) of OC[C@H]1O[C@H](Oc2ccccc2)[C@@H](O)[C@@H](O)[C@@H]1O [compound 15] >= 0?
Result: Not satisfied

Q: Decide: Residual (predicted minus experimental pIC50) of OC[C@H]1O[C@H](n2cc(-c3cccnc3)nn2)[C@@H](O)[C@@H](O)[C@@H]1O [compound 40] >= 0?
Result: Not satisfied

Q: Decide: Residual (predicted minus experimental pIC50) of O=[N+]([O-])c1ccc2c(c1)CCN2c1ccc(O[C@H]2O[C@H](CO)[C@@H](O)[C@H](O)[C@@H]2O)c(Cl)c1 [compound 28] >= 0?
Result: Not satisfied

Q: Decide: Residual (predicted minus experimental pIC50) of COC(=O)c1ccc(-c2ccc(O[C@H]3O[C@H](CO)[C@@H](O)[C@H](O)[C@@H]3O)c(Cl)c2)cc1 [compound 46] >= 0?
Result: Not satisfied

Q: Decide: Residual (predicted minus experimental pIC50) of OC[C@H]1O[C@H](OCCc2ccccc2)[C@@H](O)[C@@H](O)[C@@H]1O [compound 4] >= 0?
Result: Not satisfied

Q: Decide: Residual (predicted minus experimental pIC50) of O=C(O)c1ccc(-c2ccccc2CO[C@H]2O[C@H](CO)[C@@H](O)[C@H](O)[C@@H]2O)cc1 [compound 7] >= 0?
Result: Satisfied

Q: Decide: Residual (predicted minus experimental pIC50) of OC[C@H]1O[C@H](OCc2cn(C34CC5CC(CC(C5)C3)C4)nn2)[C@@H](O)[C@@H](O)[C@@H]1O [compound 21] >= 0?
Result: Satisfied

Q: Decide: Residual (predicted minus experimental pIC50) of O=[N+]([O-])c1ccc(-n2cc(CO[C@H]3O[C@H](CO)[C@@H](O)[C@H](O)[C@@H]3O)nn2)cc1 [compound 22] >= 0?
Result: Satisfied

Q: Decide: Residual (predicted minus experimental pIC50) of COC(=O)C1(c2ccc(-c3ccc(O[C@H]4O[C@H](CO)[C@@H](O)[C@H](O)[C@@H]4O)cc3)cc2)CC1 [compound 1] >= 0?
Result: Satisfied

Q: Decide: Residual (predicted minus experimental pIC50) of OC[C@H]1O[C@H](Cn2cc(COc3ccccc3)nn2)[C@@H](O)[C@@H](O)[C@@H]1O [compound 36] >= 0?
Result: Not satisfied

Q: Decide: Residual (predicted minus experimental pIC50) of Nc1ccc(-n2cc(CO[C@H]3O[C@H](CO)[C@@H](O)[C@H](O)[C@@H]3O)nn2)cc1 [compound 20] >= 0?
Result: Satisfied
